Here the recorded koff is given for each entry.
- system-under-test: chicken IgY (chicken)
- run-description: BLI; Octet, SAX (streptavidin) biosensors; recombinant Fabs against IgY; KD from a kinetic 1:1 model, global fit over multiple concentrations (partial fits averaged for 3 low-affinity Fabs)
# value in s⁻¹; strip the unit string

Example entries begin here.
| binder | koff, s⁻¹ |
| --- | --- |
| clone 2.1 Fab TA_10 (Fab, V domains shown) VH: EVQLQESGPSLVKPSQTLSLTCSVTGDSITSGYWNWIRRFPGNKLEYMGYISYSGSTYYNPSLKSRISITRDTSKNQYYLQLNSVTTEDTATYYCARDFDVWGAGTTVTVSS VL: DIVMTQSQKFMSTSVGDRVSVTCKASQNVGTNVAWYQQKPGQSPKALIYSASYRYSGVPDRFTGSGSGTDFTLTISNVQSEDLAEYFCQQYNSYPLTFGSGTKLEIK | 0.0034 |
| clone 2.1 Fab L_10 (affinity ladder) (Fab, V domains shown) VH: EVQLQESGPGLVKPSQTLSLTCSVTGDSITSGYWNWIRKFPGNKLEYMGYISYSGSTYYNPSLKSRVSITRDTSKNQHYLQLNSVTTEDTATYYCGRDFDVWGAGTTVTVSS VL: DIVMTQSQKFMSTSVGDRVSVTCKASQNVGTNVAWYQQKPGQSPKALIYSASYRYSGVPDRFTGSGSGTDFTLTISNVQSEDLAEYFCQQYKSYPLTFGSGTKLEIK | 0.000462 |
| 2.1^hi Fab, high-affinity variant of clone 2.1 (Fab, V domains shown) VH: EVQLQESGPSLVKPSQTLSLTCSVTGASITSGYWNWIRKFPGNRLEYMGYISYSGGTYYNPSLKSRISITRDTSKNQYYLQLNSVTTEDTATYYCARDFDVWGAGTTVTVSS VL: DIVMTQSQKFMSTSVGDRVSVTCKASQNVGTNVGWFQQKPGQSPKSLIYSASYRYSGVPDRFTGSGSGTDFTLTISNVQSEDLAEYFCHQYYSYPLTFGSGTKLEIK | 6.34e-05 |
| clone 2.1 Fab TA_23 (Fab, V domains shown) VH: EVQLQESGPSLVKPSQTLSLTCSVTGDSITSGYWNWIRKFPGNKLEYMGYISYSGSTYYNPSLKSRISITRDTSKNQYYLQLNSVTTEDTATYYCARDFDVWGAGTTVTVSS VL: DIVMTQSQKFMSTSVGDRVSVTCKASQNVGTNVAWYQQKPGQSPKALIYSASYRYSGVPDRFTGSGSGTDFTLTISNVQSEDLAEYFCHQYNSYPLTFGSGTKLEIK | 0.00133 |

Field: next binder
For clone 2.1 Fab TA_2 (Fab, V domains shown) VH: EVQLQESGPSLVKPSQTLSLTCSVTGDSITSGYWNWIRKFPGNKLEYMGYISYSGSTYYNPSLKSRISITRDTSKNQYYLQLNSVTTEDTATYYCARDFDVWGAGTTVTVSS VL: DIVMTQSQKFMSTSVGDRVSVTCKASQNVGTNVGWYQQKPGQSPKALIYSASYRYSGVPDRFTGSGSGTDFTLTISNVQSEDLAEYFCQQYNSYPLTFGSGTKLEIK the binder record lists koff as 0.000383
